Reference for the values: patent US20020115611A1

Target: α5β3γ2 GABAA subtype receptor (Homo sapiens, UniProt P18507+P31644)
Sequence (P31644 32-462): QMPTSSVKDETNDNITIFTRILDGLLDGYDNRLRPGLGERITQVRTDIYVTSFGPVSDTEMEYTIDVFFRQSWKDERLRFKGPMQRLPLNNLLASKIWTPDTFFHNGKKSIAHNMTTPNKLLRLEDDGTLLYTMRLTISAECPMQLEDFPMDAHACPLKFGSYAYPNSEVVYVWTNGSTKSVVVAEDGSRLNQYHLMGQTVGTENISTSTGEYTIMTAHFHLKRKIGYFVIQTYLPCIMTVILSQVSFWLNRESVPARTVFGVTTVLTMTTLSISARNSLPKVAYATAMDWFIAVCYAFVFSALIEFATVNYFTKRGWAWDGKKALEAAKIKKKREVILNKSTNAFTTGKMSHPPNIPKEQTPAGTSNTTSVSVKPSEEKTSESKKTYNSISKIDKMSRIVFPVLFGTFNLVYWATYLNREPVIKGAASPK
Sequence (P28472 26-473 partner): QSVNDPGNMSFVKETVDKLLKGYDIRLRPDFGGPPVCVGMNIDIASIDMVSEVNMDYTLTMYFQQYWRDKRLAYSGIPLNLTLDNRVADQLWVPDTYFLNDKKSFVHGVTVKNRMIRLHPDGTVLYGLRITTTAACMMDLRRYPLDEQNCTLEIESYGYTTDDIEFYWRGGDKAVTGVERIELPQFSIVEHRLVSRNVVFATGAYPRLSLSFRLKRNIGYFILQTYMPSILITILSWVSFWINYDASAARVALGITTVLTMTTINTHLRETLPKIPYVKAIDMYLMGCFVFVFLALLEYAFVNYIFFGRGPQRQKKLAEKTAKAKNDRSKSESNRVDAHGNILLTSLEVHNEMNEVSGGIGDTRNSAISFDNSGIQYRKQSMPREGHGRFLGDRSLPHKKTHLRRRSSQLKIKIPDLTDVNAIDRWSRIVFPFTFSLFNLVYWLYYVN
Sequence (P18507 40-475): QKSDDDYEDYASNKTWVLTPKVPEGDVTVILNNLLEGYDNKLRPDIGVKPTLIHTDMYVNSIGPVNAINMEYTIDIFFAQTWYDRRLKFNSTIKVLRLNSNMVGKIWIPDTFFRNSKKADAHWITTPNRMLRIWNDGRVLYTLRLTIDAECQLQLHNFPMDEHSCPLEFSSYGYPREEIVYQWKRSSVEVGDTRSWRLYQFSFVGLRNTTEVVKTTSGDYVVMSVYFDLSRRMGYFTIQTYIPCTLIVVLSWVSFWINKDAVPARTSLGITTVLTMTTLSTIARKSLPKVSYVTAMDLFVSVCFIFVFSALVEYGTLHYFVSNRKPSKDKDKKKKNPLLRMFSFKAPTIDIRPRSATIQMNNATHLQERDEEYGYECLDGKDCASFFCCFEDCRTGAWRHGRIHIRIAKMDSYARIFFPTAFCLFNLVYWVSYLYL
Assay: cell-based
Details: oocyte electrophysiology EC50 α5β3γ2, Xenopus laevis oocytes, human subunits; μM
endpoint name: EC50

Entry under review: Cc1ccc(-c2nc3ccc(C)cn3c2CC(=O)N(C)C)cc1 [Zolpidem, reference compound] . Reported EC50?
> 3 µM

====

Biological target: α3β3γ2 GABAA subtype receptor (Homo sapiens, UniProt P18507+P34903)
Sequence (P34903 29-492, one chain of several): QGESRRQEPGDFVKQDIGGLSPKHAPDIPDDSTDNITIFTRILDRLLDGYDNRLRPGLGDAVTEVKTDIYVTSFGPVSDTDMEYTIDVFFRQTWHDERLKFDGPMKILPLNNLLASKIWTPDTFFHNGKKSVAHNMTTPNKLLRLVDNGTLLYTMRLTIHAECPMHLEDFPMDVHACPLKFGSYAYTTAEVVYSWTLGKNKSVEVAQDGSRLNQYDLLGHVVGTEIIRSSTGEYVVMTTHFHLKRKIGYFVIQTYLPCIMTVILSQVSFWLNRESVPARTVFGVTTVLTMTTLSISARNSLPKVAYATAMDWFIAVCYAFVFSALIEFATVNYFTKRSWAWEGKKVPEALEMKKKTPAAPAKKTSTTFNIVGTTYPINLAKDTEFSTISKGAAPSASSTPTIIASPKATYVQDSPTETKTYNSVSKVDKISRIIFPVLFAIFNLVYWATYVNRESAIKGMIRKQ
Test: cell-based
Settings: Xenopus laevis oocytes, human subunits, GABA at EC10; read-out: oocyte electrophysiology EC50 α3β3γ2
endpoint name: EC50 (nM)
A number alone suffices; assume nM.

c1cc2c(cc1-c1ncc3[nH]c4c(c3n1)CCCC4)OCO2 [compound 9]: 331
COc1ccc(F)c(-c2ncc3[nH]c4c(c3n2)CCCC4)c1 [compound 11]: 177
CCOc1ccc(-n2c(=O)c3c[nH]c4ccccc4n-3c2=O)cc1 [compound 1]: 144
CNCc1ccc(NC(=O)c2c[nH]c3c2C(=O)CCCC3)cc1 [compound 4]: 133

I am curious: what EC50 value has been reported for CCOc1ccc(NC(=O)c2c[nH]c3c2C(=O)CCC3)cc1 [compound 3] ?
133

====

Target: α2β3γ2 GABAA subtype receptor (Homo sapiens, UniProt P18507+P47869)
Sequence (P47869 29-451, one chain of several): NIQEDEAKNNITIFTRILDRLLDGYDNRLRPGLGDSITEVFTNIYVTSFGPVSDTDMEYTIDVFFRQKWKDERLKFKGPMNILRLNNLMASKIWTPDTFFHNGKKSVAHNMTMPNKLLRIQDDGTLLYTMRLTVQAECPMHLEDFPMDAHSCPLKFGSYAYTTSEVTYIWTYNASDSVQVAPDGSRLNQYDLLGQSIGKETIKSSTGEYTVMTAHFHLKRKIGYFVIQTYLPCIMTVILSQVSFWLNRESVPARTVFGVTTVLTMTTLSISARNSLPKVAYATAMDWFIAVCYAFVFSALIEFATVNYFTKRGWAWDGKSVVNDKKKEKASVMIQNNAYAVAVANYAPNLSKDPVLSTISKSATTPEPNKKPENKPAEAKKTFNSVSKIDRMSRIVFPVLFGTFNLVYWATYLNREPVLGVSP
Experiment: cell-based
Settings: Xenopus laevis oocytes, human subunits, GABA at EC10; read-out: oocyte electrophysiology EC50 α2β3γ2
The following molecules are shown together with reported EC50 values.
Report the value in µM with no unit label.

// known answers, use as guide
CCOc1ccc(NC(=O)c2c[nH]c3c2C(=O)CCC3)cc1: 0.108
CCOc1ccc(-n2c(=O)c3c[nH]c4ccccc4n-3c2=O)cc1: 0.114
CNCc1ccc(NC(=O)c2c[nH]c3c2C(=O)CCCC3)cc1: 0.108

Please state recorded EC50 (tested on α2β3γ2 GABAA subtype receptor (Homo sapiens, UniProt P18507+P47869)) of c1cc2c(cc1-c1ncc3[nH]c4c(c3n1)CCCC4)OCO2
0.184

====

Biological target: α2β3γ2 GABAA subtype receptor (Homo sapiens, UniProt P18507+P47869)
Experiment: cell-based
Conditions: oocyte electrophysiology EC50 α2β3γ2, Xenopus laevis oocytes, human subunits, GABA at EC10
The entries below come with measured EC50 values attached.
Report as a plain number; the unit nM is understood.

Some entries whose results are on file:
CC1CC(=O)c2c(C(=O)Nc3ccc(F)cc3)c[nH]c2C1 (stereo not drawn): 39
CNCc1ccc(NC(=O)c2c[nH]c3c2C(=O)CCCC3)cc1: 19
O=C1C2C=Nc3ccccc3C2=NN1c1ccccc1 (stereo not drawn) [CGS 8216, reference compound]: 2
CCOc1ccc(-n2c(=O)c3c[nH]c4ccccc4n-3c2=O)cc1: 20

State the recorded EC50 for this entry: CCOc1ccc(NC(=O)c2c[nH]c3c2C(=O)CCC3)cc1
12

I have this compound here, O=c1c2c[nH]c3ccccc3n-2c(=O)n1-c1ccc(F)cc1 , and I need its recorded EC50.
31

Look at this compound and give its reported EC50. O=C(Nc1ccc(OCCO)cc1)c1c[nH]c2c1C(=O)CCC2
11

EC50 for COc1ccc(NC(=O)c2c[nH]c3c2C(=O)CC(C)(C)C3)c(F)c1 ?
28

May I ask what EC50 has been recorded for Cc1nnc2n1-c1ccc(Cl)cc1C(c1ccccc1)=NC2 [Alprazolam, reference compound] ?
12
